system: 282377-053-R-J1-PDC complex spheroids, viability; assay: Anticancer human tumor 282377-053-R-J1-PDC patient-derived colon adenocarcinoma cell line growth inhibition [GQUAD]; details: second compound 1 µM; first compound 0.0999 µM; hits give low values;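 note: spheroids exposed to compounds for 7 days before readout; percent of vehicle DMSO control viability with 100% = untreated-like growth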
MEASURED_QUANTITY: viability, T/C (%)
Expressed in %, but write only the number.

**Query** Could you tell me which viability, T/C is on file for Cc1[nH]c2ccccc2c1CCNCc1ccc(/C=C/C(=O)NO)cc1 + Cc1[nH]c2ccc(F)cc2c1-c1nc2c3cccnc3c3ncccc3c2[nH]1 ?
**Result** 87.9

**Query** Could you tell me which viability, T/C is on file for CCc1c2c(nc3ccc(O)cc13)-c1cc3c(c(=O)n1C2)COC(=O)[C@]3(O)CC + CN(C)c1ccc(Nc2c3ccc(NC(=O)CCN4CCCC4)cc3nc3cc(NC(=O)CCN4CCCC4)ccc23)cc1 ?
**Result** 51.2

**Query** Could you tell me which viability, T/C is on file for CCc1c2c(nc3ccc(O)cc13)-c1cc3c(c(=O)n1C2)COC(=O)[C@]3(O)CC + Cc1cnc(CNC(=O)c2c(=O)c3ccc(N4CCCN(C)CC4)nc3n3c2sc2ccccc23)cn1 ?
**Result** 35.9

**Query** Could you tell me which viability, T/C is on file for Cn1ncnc1[C@H]1c2n[nH]c(=O)c3cc(F)cc(c23)N[C@@H]1c1ccc(F)cc1 + Cc1[nH]c2ccc(F)cc2c1-c1nc2c3cccnc3c3ncccc3c2[nH]1 ?
**Result** 111

**Query** Could you tell me which viability, T/C is on file for Cn1ncnc1[C@H]1c2n[nH]c(=O)c3cc(F)cc(c23)N[C@@H]1c1ccc(F)cc1 + CN(C)c1ccc(Nc2c3ccc(NC(=O)CCN4CCCC4)cc3nc3cc(NC(=O)CCN4CCCC4)ccc23)cc1 ?
**Result** 107

**Query** Could you tell me which viability, T/C is on file for CC[C@@]1(O)C(=O)OCc2c1cc1n(c2=O)Cc2cc3c(CN(C)C)c(O)ccc3nc2-1 + Cc1[nH]c2ccc(F)cc2c1-c1nc2c3cccnc3c3ncccc3c2[nH]1 ?
**Result** 94.8

**Query** Could you tell me which viability, T/C is on file for Cn1ncnc1[C@H]1c2n[nH]c(=O)c3cc(F)cc(c23)N[C@@H]1c1ccc(F)cc1 + Cc1cnc(CNC(=O)c2c(=O)c3ccc(N4CCCN(C)CC4)nc3n3c2sc2ccccc23)cn1 ?
**Result** 51.5

**Query** Could you tell me which viability, T/C is on file for CCc1c2c(nc3ccc(O)cc13)-c1cc3c(c(=O)n1C2)COC(=O)[C@]3(O)CC + Cc1[nH]c2ccc(F)cc2c1-c1nc2c3cccnc3c3ncccc3c2[nH]1 ?
**Result** 36.6

**Query** Could you tell me which viability, T/C is on file for Cc1[nH]c2ccccc2c1CCNCc1ccc(/C=C/C(=O)NO)cc1 + Cc1cnc(CNC(=O)c2c(=O)c3ccc(N4CCCN(C)CC4)nc3n3c2sc2ccccc23)cn1 ?
**Result** 33

**Query** Could you tell me which viability, T/C is on file for CC[C@@]1(O)C(=O)OCc2c1cc1n(c2=O)Cc2cc3c(CN(C)C)c(O)ccc3nc2-1 + CN(C)c1ccc(Nc2c3ccc(NC(=O)CCN4CCCC4)cc3nc3cc(NC(=O)CCN4CCCC4)ccc23)cc1 ?
**Result** 108

**Query** Could you tell me which viability, T/C is on file for CC[C@@]1(O)C(=O)OCc2c1cc1n(c2=O)Cc2cc3c(CN(C)C)c(O)ccc3nc2-1 + Cc1cnc(CNC(=O)c2c(=O)c3ccc(N4CCCN(C)CC4)nc3n3c2sc2ccccc23)cn1 ?
**Result** 53.1

**Query** Could you tell me which viability, T/C is on file for Cc1[nH]c2ccccc2c1CCNCc1ccc(/C=C/C(=O)NO)cc1 + CN(C)c1ccc(Nc2c3ccc(NC(=O)CCN4CCCC4)cc3nc3cc(NC(=O)CCN4CCCC4)ccc23)cc1 ?
**Result** 103
